meta.source: ChEMBL document CHEMBL1146132

- TARGET SYSTEM: Free fatty acid receptor 1 (Homo sapiens)
- Sequence (O14842 whole entry): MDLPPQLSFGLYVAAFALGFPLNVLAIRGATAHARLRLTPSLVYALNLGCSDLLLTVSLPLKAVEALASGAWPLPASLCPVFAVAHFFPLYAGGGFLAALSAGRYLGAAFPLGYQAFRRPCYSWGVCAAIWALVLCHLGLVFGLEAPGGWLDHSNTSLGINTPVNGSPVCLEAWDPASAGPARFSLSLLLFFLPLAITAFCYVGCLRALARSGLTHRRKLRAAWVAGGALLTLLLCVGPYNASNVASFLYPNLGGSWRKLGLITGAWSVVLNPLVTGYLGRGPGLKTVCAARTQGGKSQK
- ASSAY REMARKS: Agonist potency at human GPR40 expressed in CHO cells relative to standard by luciferase reporter gene assay
- Type: functional, cell-based
Listing of recorded %max by entry.

>  <MOLECULE>
O=C(O)CCCc1ccc(NCc2cccc(Oc3ccccc3)c2)cc1

>  <%max [%]>
59

$$$$
>  <MOLECULE>
Cc1nc(-c2ccc(C(F)(F)F)cc2)sc1CNc1ccc(CCCC(=O)O)cc1

>  <%max [%]>
44

$$$$
>  <MOLECULE>
CC(CC(=O)O)c1ccc(NCc2cccc(Oc3ccccc3)c2)cc1 (configuration not stated)

>  <%max [%]>
83

$$$$
>  <MOLECULE>
O=C(O)CCc1ccc(NCc2cccc(Oc3ccccc3)c2)cc1 [GW9508]

>  <%max [%]>
86

$$$$
>  <MOLECULE>
O=C(O)c1ccc(NCc2cccc(Oc3ccccc3)c2)cc1

>  <%max [%]>
86

$$$$
>  <MOLECULE>
Cc1nc(-c2ccc(C(F)(F)F)cc2)sc1CNc1ccc(C(C)CC(=O)O)cc1 (configuration not stated)

>  <%max [%]>
109

$$$$
>  <MOLECULE>
CC(C)(Oc1ccc(NCc2cccc(Oc3ccccc3)c2)cc1)C(=O)O

>  <%max [%]>
14

$$$$

---

- TARGET SYSTEM: UniProtKB O14842
- ASSAY REMARKS: Agonist potency at human GPR40 expressed in CHO cells
pEC50: −log10 of the molar value.

>  <COMPOUND>
Cc1nc(-c2ccc(C(F)(F)F)cc2)sc1CNc1ccc(CC(=O)O)cc1

>  <TARGET SYSTEM>
UniProtKB O14842

>  <RELATION QUALIFIER>
<

>  <pEC50>
5.00

$$$$
>  <COMPOUND>
O=C(O)c1ccc(NCc2cccc(Oc3ccccc3)c2)cc1

>  <TARGET SYSTEM>
UniProtKB O14842

>  <RELATION QUALIFIER>
<

>  <pEC50>
5.00

$$$$
>  <COMPOUND>
Cc1nc(-c2ccc(C(F)(F)F)cc2)sc1CNc1ccc(CCCC(=O)O)cc1

>  <TARGET SYSTEM>
UniProtKB O14842

>  <RELATION QUALIFIER>
<

>  <pEC50>
5.00

$$$$
>  <COMPOUND>
Cc1nc(-c2ccc(C(F)(F)F)cc2)sc1CNc1ccc([C@H]2C[C@@H]2C(=O)NC(C)C)cc1 (stereo in doubt; 24B)

>  <TARGET SYSTEM>
UniProtKB O14842

>  <RELATION QUALIFIER>
=

>  <pEC50>
7.96

$$$$
>  <COMPOUND>
O=C(O)CCc1ccc(NCc2cccc(Oc3ccccc3)c2)cc1

>  <TARGET SYSTEM>
UniProtKB O14842

>  <RELATION QUALIFIER>
=

>  <pEC50>
7.19

$$$$
>  <COMPOUND>
Cc1nc(-c2ccc(C(F)(F)F)cc2)sc1CNc1ccc([C@H]2C[C@@H]2C(=O)O)cc1 (stereo in doubt; 10B)

>  <TARGET SYSTEM>
UniProtKB O14842

>  <RELATION QUALIFIER>
=

>  <pEC50>
8.61

$$$$
>  <COMPOUND>
CC(Cc1ccc(NCc2cccc(Oc3ccccc3)c2)cc1)C(=O)O (centres undefined)

>  <TARGET SYSTEM>
UniProtKB O14842

>  <RELATION QUALIFIER>
=

>  <pEC50>
7.00

$$$$
>  <COMPOUND>
Cc1nc(-c2ccc(C(F)(F)F)cc2)sc1CNc1ccc([C@H]2C[C@@H]2C(=O)NO)cc1

>  <TARGET SYSTEM>
UniProtKB O14842

>  <RELATION QUALIFIER>
=

>  <pEC50>
8.16

$$$$
>  <COMPOUND>
Cc1nc(-c2ccc(C(F)(F)F)cc2)sc1CNc1ccc(C(=O)O)cc1

>  <TARGET SYSTEM>
UniProtKB O14842

>  <RELATION QUALIFIER>
<

>  <pEC50>
5.00

$$$$

---

// log10(EC50) lookup, one value per entry
- TARGET SYSTEM: UniProt O14842
- ASSAY REMARKS: Agonist potency at human GPR40 expressed in CHO cells
READOUT KIND: log10(EC50) (log10 of the value in nM)

>  <COMPOUND>
Cc1nc(-c2ccc(C(F)(F)F)cc2)sc1CNc1ccc(C(C)CC(=O)O)cc1 (stereo not given)

>  <READOUT KIND>
log10(EC50)

>  <MEAS VALUE>
1.77

$$$$
>  <COMPOUND>
CC(C)NC(=O)[C@H]1C[C@@H]1c1ccc(NCc2cccc(Oc3ccccc3)c2)cc1

>  <READOUT KIND>
log10(EC50)

>  <MEAS VALUE>
1.10

$$$$
>  <COMPOUND>
O=C(O)[C@@H]1C[C@H]1c1ccc(NCc2cccc(Oc3ccccc3)c2)cc1

>  <READOUT KIND>
log10(EC50)

>  <MEAS VALUE>
2.75

$$$$
>  <COMPOUND>
CC(C)NC(=O)CCc1ccc(NCc2cccc(Oc3ccccc3)c2)cc1

>  <READOUT KIND>
log10(EC50)

>  <MEAS VALUE>
1.60

$$$$
>  <COMPOUND>
Cc1nc(-c2ccc(C(F)(F)F)cc2)sc1CNc1ccc([C@H]2C[C@@H]2C(=O)N[C@H](C)c2ccccc2)cc1

>  <READOUT KIND>
log10(EC50)

>  <MEAS VALUE>
1.73

$$$$
>  <COMPOUND>
Cc1nc(-c2ccc(C(F)(F)F)cc2)sc1CNc1ccc([C@H]2C[C@@H]2C(N)=O)cc1

>  <READOUT KIND>
log10(EC50)

>  <MEAS VALUE>
0.65

$$$$
>  <COMPOUND>
Cc1nc(-c2ccc(C(F)(F)F)cc2)sc1CNc1ccc([C@H]2C[C@@H]2C(=O)N(C)C)cc1

>  <READOUT KIND>
log10(EC50)

>  <MEAS VALUE>
1.82

$$$$
>  <COMPOUND>
O=C(NO)[C@H]1C[C@@H]1c1ccc(NCc2cccc(Oc3ccccc3)c2)cc1

>  <READOUT KIND>
log10(EC50)

>  <MEAS VALUE>
1.17

$$$$
>  <COMPOUND>
Cc1nc(-c2ccc(C(F)(F)F)cc2)sc1CNc1ccc(CC(C)C(=O)O)cc1 (stereo not given)

>  <READOUT KIND>
log10(EC50)

>  <MEAS VALUE>
2.55

$$$$
